Entries annotated with measured melting point

Check out these entries, answers already filled in.
* O=C(Nc1ccccc1)c1ccc(Cl)nn1 | 213 to 215 °C
* CC(C)c1c(C(=O)O)nnn1-c1ccc(F)cc1F | 158 to 160 °C
* Cc1ccc(NCCc2ccc(Cl)cc2)nn1 | 163 to 165 °C
* Cc1nc(C)n(Cc2cccc(N)c2)n1 | 109 to 111 °C
* COc1cc(C=O)cc(O)c1O | 131 to 134 °C

*Q* Please report the recorded melting point for Cc1ccc(C)c(-n2ccnc2S)c1 .
*A* 192 to 194 °C

*Q* Record: Cc1nnc2c(N)cc(Cl)nn12
*A* 227 to 229 °C

*Q* Record: NC(=O)NCc1ccccn1
*A* 139 to 141 °C

*Q* Record: CN(CC12CC3CC(CC(C3)C1)C2)C(=O)CCl
*A* 52 to 54 °C
